Reference source: patent US20240270826A1

For each entry below, report its pEC50 value.
- tested-target: T1, SARS-CoV-2 spike trimer S (Wuhan, SmT1) (SARS-CoV-2 Wuhan)
- T1 construct: extracellular domain
- measurement-description: ELISA, coated antigen, apparent EC50
Lab note: report pEC50 as minus log10 of the concentration in molar units, number only.

q: Entry NRCoV2-SR03 VHH-Fc (Fc fusion, bivalent) AVQLVDSGGGLVQAGGSLRLSCAASGSIFSNNHMGWYRQAPGKQRELVAAISSGGKTNYADFAKGRFTISRDNAKNMVYLQMNSLKPEDTAVYYCNRGGWEYRSSYYIMGPHWGQGTQVTVSS has what pEC50?
a: 9.80

q: Entry NRCoV2-MRed07 VHH-Fc (Fc fusion, bivalent) EVQLVESGGGLVQPGGSLTLSCAASGSIGPFNTMGWYRQAPGNQREPAAIITRGGVTNYADSVKGRFTISRDNAKNAVYLQMDSLKPDDTAVYYCYANYGWAIPYWGNGTQVTVSS has what pEC50?
a: 8.92

q: Entry NRCoV2-SR16 VHH-Fc (Fc fusion, bivalent) QVQLVQSAGGLVQAGGSLRLSCVVSGTTFSRYHMGWHRQAPGKQRDFVAGISTSGAVTYADSAKGRFTISRDNAKNTVYLEMNSLKLEDTALYYCNTGGWDYRSSTFIMGLNWGQGTQVTVSS has what pEC50?
a: 9.23

q: Entry NRCoV2-SR13 VHH-Fc (Fc fusion, bivalent) EVQLVESGGGLVTTGGSLRLSCATSGSRFGSKHMAWYRQAPGKQRDLVAAISSGGSTHYGSSVKGRFTISRDNAKSTVYLQMNSLNPEDTAVFYCNMGGWDYRSNTYIPGSRSDYWGQGTQVTVSS has what pEC50?
a: 9.37
